Catalogue of protein stability index values
B1: CASP6 (parent)
chain: TCADRDNLTRRFSDLGFEVKCFND

# Variants of: B1
# testMethodNotes: protein stability index of a GFP-peptide fusion (GPS, HEK-293T) (PSI 1-6); higher = more stable;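 also: lentivirally expressed fusions sorted by FACS into six bins by GFP to DsRed ratio, PSI derived from sequencing read proportions per bin multiplied by bin number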
# testSettings: c terminus: a fixed tail appended
Could you respond with only the numeric value?

Answered examples (5):
alteration | reportedValue
R5Y | 2.92
T9H | 3.03
S13I | 2.75
N23R | 3.89
F12L | 3.33

Ask: Entry D4Y : reported protein stability index = ?
Reply: 2.44

Ask: Entry C21I has what protein stability index?
Reply: 2.52
